- tested on: Syk-cSH2 (Homo sapiens)
- Construct: polyhistidine (N); made in house; host or cells: Escherichia coli BL21 (DE3) pLysS
- test method notes: Fluorescence quenching vesicle binding assay, Syk-cSH2
- condition details: Table 3; efficacy determined by the vesicle binding assay
property name: Imax (%)

[
  {
    "compound": "Cc1ccc(C(Nc2cc(C)ccn2)C(=[N+]=[N-])C(=O)OC2CCCCC2)cc1 (centres unmarked) [WC-95]",
    "measurement": "Imax (%) ≤ 10"
  },
  {
    "compound": "[N-]=[N+]=C(C(=O)OC1CCCCC1)C(Nc1ncccn1)c1c(F)c(F)c(F)c(F)c1F (centres unmarked) [WC-70]",
    "measurement": "Imax (%) ≤ 10"
  },
  {
    "compound": "[N-]=[N+]=C(C(=O)OC1CCCC1)C(Nc1ccccn1)c1ccccc1 (centres unmarked) [WC-118]",
    "measurement": "Imax (%) = 15"
  },
  {
    "compound": "[N-]=[N+]=C(C(=O)OC1CCCCC1)C(C=Cc1ccccc1)Nc1ncccn1 (centres unmarked) [WC-132]",
    "measurement": "Imax (%) = 15"
  }
]
